src = patent EP3184514A1

- targetOfAssay: LC3B (Homo sapiens)
- Construct: made in house; host or cells: E. coli Rosetta (DE3)
- procedureDetails: AlphaScreen interaction displacement assay (GST-LC3B / biotin-LIRtide)
- Format: binding
- appliedConditions: Table 1-a; n.e. means no effect; read-out: LC3B inhibition cell free IC50
reportedProperty: IC50 (µM)

Brc1cccc(CSC2=NCN(Cc3cccnc3)CN2)c1 :: 21
COC(=O)[C@H](CC(C)C)NC(=O)c1cccc(CSC2=NCN(Cc3cccnc3)CN2)c1 :: 8.9
COc1cccc(CSC2=NCN(Cc3cccnc3)CN2)c1 :: 18.5
c1ccc(CSC2=NCN(Cc3cccnc3)CN2)cc1 :: 19.5
Fc1ccc(CSC2=NCN(Cc3cccnc3)CN2)cc1 :: 23.6
